# Tested on: UACC-62 melanoma
# protocol summary: NCI-60 one-dose screen, 48 h (100 = growth as untreated, 0 = no growth, -100 = all killed)
# condition summary: 10 µM
This is part of a sample that, as a whole, favours compounds with a hit. Of some 83,000 tested, about 20% had one in any assay.
Criterion: growth meeting or surpassing 50%. Met: Yes. Not met: No.

compound: O=c1nc(-c2ccccc2)cc(-c2cc3ccccc3nc2Cl)[nH]1
classification: No

compound: Cc1cc(C)nc(NS(=O)(=O)c2ccc(N/C(N)=N/c3nccc(-c4ccccc4)n3)cc2)n1
classification: Yes

compound: COc1ccc(C2NC(=S)NC(C)=C2C(=O)OC(C)C)cc1OC (centres undefined)
classification: Yes

compound: COc1ccc(-c2nc(Nc3ccccc3S(N)(=O)=O)c3ccccc3n2)cc1
classification: Yes

compound: O=C(CSc1nnc(-c2c[nH]c3ccccc23)n1-c1ccccc1)c1ccc(Cl)cc1
classification: Yes

compound: O=C(NO)c1ccc(Cn2ccc3c(Nc4ccccc4)ncnc32)cc1
classification: No

compound: O=C(Nc1ccc(OCc2ccccc2)cc1)Nc1ccc(Cl)c(C(F)(F)F)c1
classification: No

compound: CC(=O)c1ccc(NC(=O)NCn2c(=O)[nH]c3ccccc3c2=O)cc1
classification: Yes

compound: Cc1noc2c(Cc3ccccc3)nn(CC(=O)N/N=C/c3ccc(Br)cc3)c(=O)c12
classification: Yes

compound: Cc1noc2c(Cc3ccccc3)nn(CC(=O)N/N=C/c3ccc(F)cc3)c(=O)c12
classification: Yes

compound: CN1CCN(c2ccc(Nc3nc(NCCNC(=O)c4ccc(C(F)(F)F)cc4)c4sccc4n3)cc2)CC1
classification: No

compound: O=C(CS(=O)(=O)c1oc(-c2ccc(Cl)cc2)nc1S(=O)(=O)c1ccccc1)N1CCCC1
classification: No

compound: CN(C(=O)c1ccc(C(C)(C)C)cc1)c1sc2c(c1C#N)CCC(=O)C2
classification: No

compound: CC(=O)Nc1ccc(-c2cn(-c3cccc(C(=O)Nc4ccc(F)c(C(F)(F)F)c4)c3)nn2)cn1
classification: Yes

compound: O=C(CSc1nnc(-c2ccc3nc(-c4ccccc4)[nH]c3c2)o1)Nc1ccc(Br)cc1
classification: Yes

compound: CCOC(=O)CNC(=O)CN(Cc1ccccc1)C(=O)[C@@]1(C)CCC[C@]2(C)[C@H]3C[C@H]4C(C(C)C)=C[C@]3(CC[C@H]21)[C@@H]1C(=O)OC(=O)[C@@H]14
classification: Yes

compound: COc1ccc2[nH]c(=O)c(CSc3cccc(N)c3)cc2c1
classification: No

compound: O=C(COc1ccc(NC(=O)Nc2ccc(Cl)cc2)cc1)N=Nc1c(O)[nH]c2ccc([N+](=O)[O-])cc12
classification: No

Hello, the source for this data is PubChem BioAssay (NCI), in case you need it.
